# Tested on: BT-333 (glioblastoma)
# measurement-protocol: In vitro cytotoxicity
# Format: cell-based, human
# condition-description: read-out: IC50 BT-333; 72 h, MTT, mean ± S.D (n = 6)
Answer each item with its documented IC50.
Express it in nM; write the number only.

Could you share which IC50 value was measured for [Au+].[Cl-].c1ccc(P(c2ccccc2)c2ccccc2P(c2ccccc2)c2ccccc2)cc1.c1ccc(P(c2ccccc2)c2ccccc2P(c2ccccc2)c2ccccc2)cc1 [1-BF4] ?
660

Name the reported IC50 value associated with the compound [Au+].[Cl-].c1ccc(P(c2ccccc2)c2ccccc2P(c2ccccc2)c2ccccc2)cc1.c1ccc(P(c2ccccc2)c2ccccc2P(c2ccccc2)c2ccccc2)cc1 [1-Cl]
410

Returns the measured IC50 for the input compound. Input: [Au+].[Cl-].c1ccc(P(c2ccccc2)c2ccccc2P(c2ccccc2)c2ccccc2)cc1.c1ccc(P(c2ccccc2)c2ccccc2P(c2ccccc2)c2ccccc2)cc1 [1-AuCl4]
1300

Would you kindly share the measured IC50 for [Au+].[Cl-].c1ccc(P(c2ccccc2)c2ccccc2P(c2ccccc2)c2ccccc2)cc1.c1ccc(P(c2ccccc2)c2ccccc2P(c2ccccc2)c2ccccc2)cc1 [1-PF6] ?
380
